test: RPL19A-GFP modulators, yeast TOR pathway, confirmation, cell-based, S. cerevisiae, flow cytometry, cherry picks, mother/daughter gates (AID 2270); conditions: S. cerevisiae RPL19A-GFP strain, 3 h, at 10 µM, stronger effect = lower value, 100 = same GFP as DMSO wells
GFP response vs DMSO values by entry
Express it in %; write the number only.

Here is how some compounds turned out for GFP response vs DMSO.
CCCc1nnc(NC(=O)c2nc(S(=O)(=O)Cc3cccc(C)c3)ncc2Cl)s1 :: 95.1
CCOC(=O)c1sc(NC(=O)CN2C(=O)c3cccc4cccc(c34)C2=O)nc1C :: 96.6
CCC(=O)Nc1nc(C)c(-c2csc(Nc3cccc(C(=O)O)c3)n2)s1 :: 97.3
CC(C)NC(=O)c1ccccc1-c1nc(-c2ccccc2Cl)no1 :: 97.2
Cn1c(C(=O)O)cc2c(=O)n3ccccc3nc21 :: 101

# compound CN(C)c1ccc(N=Cc2nc(-c3ccccc3)oc2OC(=O)c2cccc(Cl)c2)cc1 ; its GFP response vs DMSO = 101

Entry under test: C/C(=N\NC(=O)COc1ccccc1-c1ccccc1)c1ccccn1 . Its GFP response vs DMSO was 101

Query O=C(c1ccc(Cl)cc1)N1CCN(c2cccc3[nH]ccc23)CC1 yields GFP response vs DMSO of 94.6

GFP response vs DMSO reported for this compound O=c1oc2cc(Oc3c([N+](=O)[O-])cc(C(F)(F)F)cc3[N+](=O)[O-])ccc2c2c1CCCC2 : 95.4

Form: compound = CCc1ccc2c(c1)C1(NN=C(c3cccc4ccccc34)S1)C(=O)N2 (stereo unspecified) ; GFP response vs DMSO = 96

The recorded GFP response vs DMSO for Cc1cccn2c(=O)c(/C=C(\C#N)C(=O)NCc3ccco3)c(N3CCOCC3)nc12 is 100
